The measurements presented in this section are drawn from PubChem BioAssay (NCI).

Test system: SW-620 colon
Experiment: NCI-60 one-dose screen, 48 h (100 = growth as untreated, 0 = no growth, -100 = all killed)
Settings: 10 µM unless noted
Description: Growth inhibition of the SW-620 human tumor cell line is measured as a screen for anti-cancer activity. Cells are grown in 96 well plates and exposed to the test compound for 48 hours. Compounds are tested at a single concentration, which is 10^-5 M for most compounds. The reported endpoint is percent growth (GI% or GIPRCNT), where numbers from 0 - 100% represent growth inhibition, and numbers from -100% - 0 represent cell death. For example, a value of 40 represents 60% growth inhibition. […]
This is part of a sample that, as a whole, favours compounds with a hit. Of some 83,000 tested, about 20% had one in any assay. The source made the active and inactive calls. The calls were made as follows: active = growth percent below 10; inactive = the rest.
Entries and their growth

>>> meas_value("COC(=O)[C@]12CC[C@@H](C)[C@H](C)[C@@H]1C1=CC[C@@H]3[C@@]4(C)C[C@@H](O)[C@H](O)[C@@](C)(CO)C4=CC[C@@]3(C)[C@]1(C)CC2")
"-55.5% (active)"
>>> meas_value("COc1cc2nc(Cl)nc(Nc3cccc(C(=O)/C=C/c4ccc(Br)cc4)c3)c2cc1OC")
"15.1% (inactive)"

Exam item: Specify growth for O=C(N/N=C/c1ccccc1SSc1ccccc1/C=N/NC(=O)c1ccccc1)c1ccccc1 and stop.
Marked response: 41.6% (inactive)

Exam item: Specify growth for CCCCCC1CCCCN1C(=O)OCC (centres undefined) and stop.
Marked response: 105% (inactive)

Exam item: Specify growth for Cc1cc(C)n(Cc2cc(C(C)(C)C)cc(C(C)(C)C)c2)c(=O)c1C#N and stop.
Marked response: 101% (inactive)

Exam item: Specify growth for O=C(NC(Cc1cn(Cc2ccccc2)cn1)C(=O)O)OCC1c2ccccc2-c2ccccc21 (centres undefined) and stop.
Marked response: 104% (inactive)

Exam item: Specify growth for CC1(C)C(=O)/C(=C\c2cccnc2)C[C@]2(C)[C@H]3CC[C@@H]4[C@@H](C(=O)/C=C/c5ccncc5)CC[C@@]4(C)[C@]3(C)CC[C@@H]12 and stop.
Marked response: 8.95% (active)

###

tested on: ACHN renal; assay: NCI-60 one-dose screen, 48 h; settings: 10 µM unless noted
This is part of a sample that, as a whole, favours compounds with a hit. Of some 83,000 tested, about 20% had one in any assay. Active and inactive are the calls of the source. Rule for the calls: active = growth percent below 10; inactive = the rest.
Response enum: active, inactive

Exam item: Please share the test call associated with Cn1cc(-c2csc(-c3cn(CCN)c4ccc(F)cc34)n2)c2cccnc21 .
Marked response: inactive

Exam item: Please share the test call associated with Oc1cc(/C=C/c2nc(N3CCOCC3)c3cc(Cl)c(Cl)cc3n2)cc(O)c1O .
Marked response: inactive

Exam item: Please share the test call associated with COc1cc2c(cc1-c1c(C)noc1C)ncc1nc(C3CCC(F)(F)CC3)n([C@@H](C)COC(F)F)c12 .
Marked response: inactive

Exam item: Please share the test call associated with CC1(C)CC[C@]2(C(=O)Nc3ccccn3)CC[C@]3(C)C(=CC[C@@H]4[C@@]5(C)C/C(=C/c6ccncc6)C(=O)C(C)(C)[C@@H]5CC[C@]43C)[C@@H]2C1 .
Marked response: active

Exam item: Please share the test call associated with COc1ccc(/C=C(\C#N)c2cc3ccccc3n2C(C)=O)cc1 .
Marked response: inactive

Exam item: Please share the test call associated with O=C(N/N=C\c1ccccc1O)C1CC1 .
Marked response: inactive

Exam item: Please share the test call associated with COc1ccc(NC(=O)c2ccc3c(c2)nc(-c2cc4ccccc4[nH]c2=O)n3-c2cc(C(C)(C)C)[nH]n2)cc1 .
Marked response: inactive

Exam item: Please share the test call associated with O=S(=O)(NCCNc1cc(-c2cn(-c3ccccc3)nc2-c2cccc(O)c2)ccn1)c1cccc(F)c1 .
Marked response: inactive

Exam item: Please share the test call associated with COc1ccc(-c2n/c(=C\c3c(O)[nH]c4ccc(OC)cc34)cc3c2=Nc2ccccc2-3)cc1 .
Marked response: inactive

###

Entries and their growth
tested on: SF-268 CNS; experiment: NCI-60 one-dose screen, 48 h (100 = growth as untreated, 0 = no growth, -100 = all killed); conditions: 10 µM unless noted
About 83,000 compounds went through this panel and 20% of them were active in at least one assay; those are over-represented in the sample as a whole.
Lab book: enter the figure in %, no units written.

Observe how each entry below is paired with its result.
>>> meas_value("Fc1ccc(Nc2ccc3c(OCCCN4CCOCC4)cccc3n2)cc1F")
71.3
>>> meas_value("Cc1ccc(C)c2c1CCC2C(C)C (centres undefined)")
96.8
>>> meas_value("CC1(C)C(=O)/C(=C\\c2ccco2)C[C@]2(C)[C@H]3CC[C@@H]4[C@@H](C(=O)/C=C/c5ccco5)CC[C@@]4(C)[C@]3(C)CC[C@@H]12")
78.7
>>> meas_value("COc1ccc(-c2cc(-c3cccs3)n(N=O)c(=O)c2C#N)cc1")
110
>>> meas_value("NCCn1cc(-c2nc(-c3c[nH]c4ncccc34)cs2)c2ccccc21")
84.7
>>> meas_value("COc1ccc2c(c1)c1nc3cc(C)c(C)cc3nc1n2CCN(C)C")
31.3
>>> meas_value("C=C(C)[C@@H]1CC[C@]2(C(=O)O)CC[C@]3(C)[C@H](CC[C@@H]4[C@@]5(C)C/C(=C/c6cccc(I)c6)C(=O)C(C)(C)[C@@H]5CC[C@]43C)[C@@H]12")
25.5
>>> meas_value("COc1ccc2c(c1)c(-c1nc(-c3c[nH]c4ncccc34)cs1)cn2CCNC(=O)OC(C)(C)C")
83.5

We now examine a further compound.
Exam item: Specify growth for Cn1c(=O)c2c(nc(Br)n2CC(=O)Nc2ccc(F)cc2)n(C)c1=O and stop.
Marked response: 108

###

tested on: NCI-H522 lung; assay: NCI-60 one-dose screen, 48 h (100 = growth as untreated, 0 = no growth, -100 = all killed); details: 10 µM unless noted
Compounds without any hit were thinned out: in the full panel of roughly 83,000, 20% have a hit.
Entries and their growth
Lab book: enter the figure in %, no units written.

Observe how each entry below is paired with its result.
>>> meas_value("C[C@@H](C(=O)O)c1ccc2c3cc(Cl)ccc3n(Cc3cc(=O)oc4ccc(Cl)cc34)c2c1")
90.7
>>> meas_value("COC(=O)CNc1nc(N(C)O)nc(N(C)O)n1")
53.2
>>> meas_value("CC(=O)O[C@H]1CC[C@]2(C)[C@H]3CC=C4[C@@H]5[C@H](C)[C@@H](C)CC[C@]5(C(=O)NCCNCCNCCN)CC[C@@]4(C)[C@]3(C)CC[C@H]2C1(C)C")
87.2
>>> meas_value("COc1cc(/C=C/c2cc(/C=C/c3ccc(O)c(OC)c3)n(-c3ccc(Cl)cc3)c(=O)n2)ccc1O")
91.3

Exam item: Answer with growth of C=C(C)[C@@H]1CC[C@]2(C(=O)N3CCCNCC3)CC[C@]3(C)[C@H](CC[C@@H]4[C@@]5(C)CCC(=O)C(C)(C)[C@@H]5CC[C@]43C)[C@@H]12 measured for NCI-H522 lung.
Marked response: 101

Exam item: Answer with growth of O=C(O)c1cccc2c1-c1ccc(Cl)cc1C2 measured for NCI-H522 lung.
Marked response: 88.2

Exam item: Answer with growth of C=C(C)[C@@H]1CC[C@]2(C(=O)N3CCN(CC)CC3)CC[C@]3(C)[C@H](CC[C@@H]4[C@@](C)(CCC(=O)N5CCN(CC)CC5)[C@H](C(=C)C)CC[C@]43C)[C@@H]12 measured for NCI-H522 lung.
Marked response: 77.9

###

System: BT-549 breast
Test: NCI-60 one-dose screen, 48 h
Conditions: 10 µM unless noted
Protocol: Growth inhibition of the BT-549 human tumor cell line is measured as a screen for anti-cancer activity. Cells are grown in 96 well plates and exposed to the test compound for 48 hours. Compounds are tested at a single concentration, which is 10^-5 M for most compounds. The reported endpoint is percent growth (GI% or GIPRCNT), where numbers from 0 - 100% represent growth inhibition, and numbers from -100% - 0 represent cell death. For example, a value of 40 represents 60% growth inhibition. […]
The panel holds about 83,000 compounds, 20% with a hit somewhere; the sample as a whole holds those more often. Active and inactive are the calls of the source. How the source made its calls: active means growth percent below 10; inactive means the rest.
Response enum: active, inactive

These solved cases illustrate the format of a correct answer.
>>> group("C=C1C(=O)O[C@H]2[C@H]1CC/C(Cn1cc(-c3ccc(OC)cc3)nn1)=C\\CC[C@@]1(C)O[C@@H]21")
"inactive"
>>> group("Cc1nnc2nc(N)[nH]n2c1=O")
"inactive"
>>> group("c1ccc2[nH]c(-c3cc(-c4ccc5c(c4)OCO5)n[nH]3)nc2c1")
"inactive"
>>> group("COc1cc2c(cc1OC)C(=O)/C(=C/c1cc(-c3ccc4c(c3)OCO4)n[nH]1)C2")
"active"

Now consider a different compound.
Exam item: Please share the test call associated with Cn1cc(-c2csc(-c3cn(C(=O)OC(C)(C)C)c4ccc(Br)cc34)n2)c2cccnc21 .
Marked response: inactive
